# STUDY SYSTEM: UniProt:P49761
# Sequence (P49761 whole entry): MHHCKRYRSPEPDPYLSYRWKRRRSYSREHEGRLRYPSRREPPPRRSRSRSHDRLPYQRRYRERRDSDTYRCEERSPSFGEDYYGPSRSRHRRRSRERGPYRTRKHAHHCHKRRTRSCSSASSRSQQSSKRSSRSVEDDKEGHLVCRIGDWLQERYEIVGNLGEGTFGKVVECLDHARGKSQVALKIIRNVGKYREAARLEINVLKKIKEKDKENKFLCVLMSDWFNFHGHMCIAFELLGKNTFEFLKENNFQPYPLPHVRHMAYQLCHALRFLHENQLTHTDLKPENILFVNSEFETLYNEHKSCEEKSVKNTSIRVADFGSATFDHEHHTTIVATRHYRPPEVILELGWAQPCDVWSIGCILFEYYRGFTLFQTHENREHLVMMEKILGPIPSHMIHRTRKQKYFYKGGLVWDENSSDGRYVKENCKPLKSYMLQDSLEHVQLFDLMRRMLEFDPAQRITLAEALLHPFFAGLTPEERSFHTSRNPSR
# Type: subcellular, K-562, COLO 205, SK-N-BE(2) and MV-4-11, Cell lysate
# CONDITION PARAMETERS: read-out: Kd apparent; further: in the data inactive means no Kd found up to 30 µM
Active and inactive are the calls of the source.
Labels: TRUE for active, FALSE for inactive

>>> classification("COc1cc2nccc(Oc3ccc(NC(=O)C4(C(=O)Nc5ccc(F)cc5)CC4)cc3)c2cc1OC [CABOZANTINIB]")
"FALSE"
>>> classification("C=CC(=O)Nc1cc(Nc2nccc(-c3cn(C)c4ccccc34)n2)c(OC)cc1N(C)CCN(C)C")
"FALSE"
>>> classification("O=S(=O)(c1cccc2cnccc12)N1CCCNCC1")
"FALSE"
>>> classification("Cn1c(=O)c(F)c(Nc2ccc(I)cc2F)c2c(=O)n(C[C@@H](O)CO)cnc21")
"FALSE"
>>> classification("Cc1c(Cn2c(C)nc3c(C(=O)O)cc(N4CCOCC4)cc32)cccc1C(F)(F)F")
"FALSE"
>>> classification("CNC(=O)c1cccc(-c2ccc3c(N4CCOC[C@@H]4C)nc(N4CCOC[C@@H]4C)nc3n2)c1")
"FALSE"
>>> classification("COc1cc(Nc2ncc(F)c(Nc3ccc4c(n3)N(COP(=O)(O)O)C(=O)C(C)(C)O4)n2)cc(OC)c1OC")
"FALSE"
>>> classification("COc1ccc2c(OCc3nnc4ccc(-c5ccccc5)nn34)ccnc2c1")
"FALSE"
>>> classification("CN1CCN(c2nc(C3=C(c4c[nH]c5ccccc45)C(=O)NC3=O)c3ccccc3n2)CC1")
"FALSE"
>>> classification("CCc1cc2c(cc1N1CCC(N3CCOCC3)CC1)C(C)(C)c1[nH]c3cc(C#N)ccc3c1C2=O")
"TRUE"
>>> classification("C[C@]1(O)C[C@@H](c2nc(-c3ccc4ccc(-c5ccccc5)nc4c3)c3c(N)nccn32)C1")
"FALSE"
>>> classification("O=S(=O)(c1cccc2c(O)nccc12)N1CCCNCC1 [HYDROXYFASUDIL]")
"FALSE"
>>> classification("C=CCn1c(=O)c2cnc(Nc3ccc(N4CCN(C)CC4)cc3)nc2n1-c1cccc(C(C)(C)O)n1")
"FALSE"
>>> classification("COc1cc2ncnc(Nc3ccc(F)c(Cl)c3)c2cc1NC(=O)/C=C/CN1CCCCC1 [DACOMITINIB ANHYDROUS]")
"FALSE"
>>> classification("O=C(Nc1ccc(OC(F)(F)F)cc1)c1sccc1NCc1ccnc2ccccc12")
"FALSE"

* * *

# STUDY SYSTEM: Platelet-derived growth factor receptor beta (Homo sapiens, UniProt P09619); further: in the data inactive means no Kd found up to 30 µM
# Sequence (P09619 whole entry): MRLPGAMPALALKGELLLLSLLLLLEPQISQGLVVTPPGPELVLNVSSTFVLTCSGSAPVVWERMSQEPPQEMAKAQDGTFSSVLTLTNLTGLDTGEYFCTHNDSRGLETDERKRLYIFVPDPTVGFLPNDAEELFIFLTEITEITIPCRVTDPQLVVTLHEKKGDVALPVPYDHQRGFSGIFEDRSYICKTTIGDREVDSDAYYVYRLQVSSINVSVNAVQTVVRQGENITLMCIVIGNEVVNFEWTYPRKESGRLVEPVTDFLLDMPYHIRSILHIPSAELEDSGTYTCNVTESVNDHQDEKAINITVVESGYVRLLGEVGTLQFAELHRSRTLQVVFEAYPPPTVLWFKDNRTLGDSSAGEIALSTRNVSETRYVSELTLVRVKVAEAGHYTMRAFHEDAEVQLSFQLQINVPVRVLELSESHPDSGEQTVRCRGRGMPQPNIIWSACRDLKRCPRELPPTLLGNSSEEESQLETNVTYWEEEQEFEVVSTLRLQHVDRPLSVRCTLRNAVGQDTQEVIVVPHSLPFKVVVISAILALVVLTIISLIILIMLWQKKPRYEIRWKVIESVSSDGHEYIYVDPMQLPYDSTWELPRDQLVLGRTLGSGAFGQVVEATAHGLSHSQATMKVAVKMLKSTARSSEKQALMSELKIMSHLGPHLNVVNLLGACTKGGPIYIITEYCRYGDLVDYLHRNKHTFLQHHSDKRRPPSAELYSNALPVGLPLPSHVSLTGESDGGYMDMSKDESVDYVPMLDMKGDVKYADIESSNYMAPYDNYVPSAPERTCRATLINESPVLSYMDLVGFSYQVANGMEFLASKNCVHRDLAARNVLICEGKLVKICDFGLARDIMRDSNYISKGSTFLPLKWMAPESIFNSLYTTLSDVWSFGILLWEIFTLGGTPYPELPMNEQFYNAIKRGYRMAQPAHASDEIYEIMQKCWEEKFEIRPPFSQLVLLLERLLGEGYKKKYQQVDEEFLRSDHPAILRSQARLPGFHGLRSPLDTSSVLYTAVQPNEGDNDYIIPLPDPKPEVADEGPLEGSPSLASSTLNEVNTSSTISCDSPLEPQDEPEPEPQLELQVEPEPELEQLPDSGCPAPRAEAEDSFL
Calls of active or inactive are those of the source.
Labels: active, inactive

>>> classification("NC[C@@](O)(c1ccc(Cl)cc1)c1ccc(-c2cn[nH]c2)cc1")
"inactive"
>>> classification("O=C(Nc1ccc(OC(F)(F)F)cc1)c1sccc1NCc1ccnc2ccccc12")
"inactive"
>>> classification("COc1cccc2cc(-c3nc([C@H]4CC[C@H](C(=O)O)CC4)n4ncnc(N)c34)[nH]c12")
"inactive"
>>> classification("Cn1c(=O)c(F)c(Nc2ccc(I)cc2F)c2c(=O)n(C[C@@H](O)CO)cnc21")
"inactive"
>>> classification("CCOc1ccn(-c2ccc(F)cc2)c(=O)c1C(=O)Nc1ccc(Oc2ccnc(N)c2Cl)c(F)c1")
"inactive"
>>> classification("COc1cc(F)c(F)c(Nc2ccc(I)cc2F)c1NS(=O)(=O)C1(C[C@H](O)CO)CC1")
"inactive"
>>> classification("C=CCn1c(=O)c2cnc(Nc3ccc(N4CCN(C)CC4)cc3)nc2n1-c1cccc(C(C)(C)O)n1")
"inactive"
>>> classification("COc1cc2ncnc(Nc3ccc(F)c(Cl)c3)c2cc1NC(=O)/C=C/CN1CCCCC1 [DACOMITINIB ANHYDROUS]")
"inactive"
>>> classification("O=c1[nH]c([C@@H]2CCCN2)nc2c1oc1ccc(Cl)cc12")
"inactive"
>>> classification("CNC(=O)c1cccc(-c2ccc3c(N4CCOC[C@@H]4C)nc(N4CCOC[C@@H]4C)nc3n2)c1")
"inactive"
>>> classification("Cn1cc(-c2[nH]c3cc(NC(=O)[C@H](N)C4CCCCC4)cc4c3c2C=NNC4=O)cn1")
"active"
>>> classification("CNC(=O)c1cc(COc2nnc(Nc3ccc(Cl)cc3)c3ccoc23)ccn1")
"active"
>>> classification("O=C(NOC[C@H](O)CO)c1ccc(F)c(F)c1Nc1ccc(I)cc1F")
"inactive"
>>> classification("C#Cc1cccc(Nc2ncnc3cc4c(cc23)OCCOCCOCCO4)c1")
"inactive"
>>> classification("CC[C@@](C)(Nc1ccnc(-c2c[nH]c3ncccc23)n1)C(=O)NCC(F)(F)F")
"inactive"
>>> classification("Cc1c(Cn2c(C)nc3c(C(=O)O)cc(N4CCOCC4)cc32)cccc1C(F)(F)F")
"inactive"
>>> classification("COc1cc2nccc(Oc3ccc(NC(=O)C4(C(=O)Nc5ccc(F)cc5)CC4)cc3)c2cc1OC [CABOZANTINIB]")
"inactive"
>>> classification("Cc1cc(-c2cc(OC(=O)c3ccccc3)ccc2Cl)cc2nnc(Nc3ccc(OCCN4CCCC4)cc3)nc12")
"active"
>>> classification("COc1cccc(Nc2ncnn3ccc(CN4CC[C@@H](N)[C@H](O)C4)c23)c1")
"inactive"
>>> classification("S=C(NCc1ccc2c(c1)OCO2)N1CCN(c2ncnc3c2oc2ccccc23)CC1")
"inactive"
>>> classification("CC(C)(O)CC(=O)NCCn1ccc2ncnc(Nc3ccc(Oc4cccc(C(F)(F)F)c4)c(Cl)c3)c21")
"inactive"
>>> classification("c1cc(OCCN2CCCCC2)cc(-c2n[nH]c3ccc(-c4nc[nH]n4)cc23)c1")
"inactive"
>>> classification("NC(=O)c1ccc(N(C(N)=O)c2c(F)cccc2F)nc1-c1ccc(F)cc1F")
"inactive"
>>> classification("C=CC(=O)Nc1cc(Nc2nccc(-c3cn(C)c4ccccc34)n2)c(OC)cc1N(C)CCN(C)C")
"inactive"
>>> classification("COc1cc2ncnc3c2cc1OCCCCCN(C)Cc1ccc(Br)cc1N3")
"inactive"
>>> classification("Cc1c(NC(=O)OC[C@@H]2COCCN2)cn2ncnc(Nc3ccc4c(cnn4Cc4cccc(F)c4)c3)c12")
"inactive"
